Every entry's value here was drawn from ChEMBL document CHEMBL3632577.

- target-under-test: Metabotropic glutamate receptor 1 (Homo sapiens, UniProt Q13255)
- protocol: Positive allosteric modulation of human mGluR1 by calcium mobilization assay
- Format: functional
- conditions-used: read-out: EC50
- Sequence (Q13255 whole entry): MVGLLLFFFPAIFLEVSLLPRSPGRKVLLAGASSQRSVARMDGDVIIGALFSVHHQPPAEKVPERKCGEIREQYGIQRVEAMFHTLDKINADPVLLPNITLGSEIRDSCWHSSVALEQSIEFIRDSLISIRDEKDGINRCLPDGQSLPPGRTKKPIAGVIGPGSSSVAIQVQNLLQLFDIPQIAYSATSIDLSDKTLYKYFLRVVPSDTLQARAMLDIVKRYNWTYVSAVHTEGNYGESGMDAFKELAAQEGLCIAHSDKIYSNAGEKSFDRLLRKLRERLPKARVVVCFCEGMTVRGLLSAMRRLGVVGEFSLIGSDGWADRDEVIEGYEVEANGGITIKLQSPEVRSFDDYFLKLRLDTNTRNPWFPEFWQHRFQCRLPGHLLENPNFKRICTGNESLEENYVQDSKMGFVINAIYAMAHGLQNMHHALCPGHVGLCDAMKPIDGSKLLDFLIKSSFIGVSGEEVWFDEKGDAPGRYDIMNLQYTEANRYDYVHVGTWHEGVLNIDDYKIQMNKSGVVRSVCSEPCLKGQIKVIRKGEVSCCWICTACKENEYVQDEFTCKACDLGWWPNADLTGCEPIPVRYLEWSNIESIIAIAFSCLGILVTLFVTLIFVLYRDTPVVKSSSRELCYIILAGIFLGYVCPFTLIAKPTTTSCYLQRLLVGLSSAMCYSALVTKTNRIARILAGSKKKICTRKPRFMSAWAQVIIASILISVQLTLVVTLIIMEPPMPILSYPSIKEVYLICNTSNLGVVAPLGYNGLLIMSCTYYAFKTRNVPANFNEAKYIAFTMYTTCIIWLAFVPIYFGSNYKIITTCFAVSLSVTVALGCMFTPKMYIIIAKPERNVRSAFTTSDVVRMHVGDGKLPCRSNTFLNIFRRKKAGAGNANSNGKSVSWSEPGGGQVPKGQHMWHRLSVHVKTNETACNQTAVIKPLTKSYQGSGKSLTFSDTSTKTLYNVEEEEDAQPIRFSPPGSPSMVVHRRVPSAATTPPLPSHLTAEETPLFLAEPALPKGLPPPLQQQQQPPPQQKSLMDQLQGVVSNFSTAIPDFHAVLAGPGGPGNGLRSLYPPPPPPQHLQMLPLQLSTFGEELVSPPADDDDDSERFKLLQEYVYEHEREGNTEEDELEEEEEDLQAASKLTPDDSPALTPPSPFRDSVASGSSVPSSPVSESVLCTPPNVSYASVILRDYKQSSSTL
pEC50: −log10 of the molar value.
quantity: pEC50

// below: answered compounds
| smi | target-under-test | pEC50 |
| --- | --- | --- |
| COc1cc(N2C(=O)c3ccccc3C2=O)ccc1NC(=O)c1occc1C | Metabotropic glutamate receptor 1 (Homo sapiens, UniProt Q13255) | 6.48 |
| Cc1ccoc1C(=O)Nc1cnc(N2C(=O)c3cccc(Cl)c3C2=O)nc1 | Metabotropic glutamate receptor 1 (Homo sapiens, UniProt Q13255) | 6.68 |
| COc1cc(NC(=O)c2occc2C)ccc1N1C(=O)c2cccc(Cl)c2C1=O | Metabotropic glutamate receptor 1 (Homo sapiens, UniProt Q13255) | 7.74 |

I = Cc1ccoc1C(=O)Nc1ccc(N2C(=O)c3cccc(C)c3C2=O)c(F)c1
II = Cc1ccoc1C(=O)Nc1cnc(N2C(=O)c3cccc(F)c3C2=O)nc1
q: Sorting ascending by pEC50, which comes first: I or II ? Answer with the label corresponding to your selection.
a: II
(II: 5.27, I: 7.59)

----------
- target-under-test: Metabotropic glutamate receptor 1 (Homo sapiens)
- protocol: Positive allosteric modulation of human mGluR1 by calcium mobilization assay
- Format: functional
quantity: EC50 (µM)

// below: answered molecules
| smi | target-under-test | EC50 / µM |
| --- | --- | --- |
| COc1cc(N2C(=O)c3ccccc3C2=O)ccc1NC(=O)c1occc1C | Metabotropic glutamate receptor 1 (Homo sapiens) | 0.331 |
| Cc1ccoc1C(=O)Nc1ccc(N2C(=O)c3ccccc3C2=O)cc1Cl | Metabotropic glutamate receptor 1 (Homo sapiens) | 0.0288 |
| Cc1ccoc1C(=O)Nc1ccc(N2C(=O)c3cccc(C)c3C2=O)cc1 | Metabotropic glutamate receptor 1 (Homo sapiens) | 0.0162 |

a = Cc1ccoc1C(=O)Nc1ccc(N2C(=O)c3cccc(Cl)c3C2=O)c(F)c1
b = Cc1ccoc1C(=O)Nc1ccc(N2C(=O)c3cccc(C)c3C2=O)c2ccccc12
q: Sorting ascending by EC50, which comes first: a or b ? Answer with the label corresponding to your selection.
a: b
(b: 0.0158 µM, a: 0.0275 µM)

P = Cc1ccoc1C(=O)Nc1ccc(N2C(=O)c3ccccc3C2=O)c(F)c1
Q = Cc1cc(NC(=O)c2occc2C)ccc1N1C(=O)c2cccc(F)c2C1=O
R = Cc1ccoc1C(=O)Nc1cnc(N2C(=O)c3cccc(C)c3C2=O)nc1
q: Number of molecules to sort: 3. Sort criterion: EC50, ascending. Please list each label once, in the requested order.
a: P, Q, R

a = Cc1ccoc1C(=O)Nc1ccc(N2C(=O)c3ccccc3C2=O)c2ccccc12
b = Cc1ccoc1C(=O)Nc1ccc(N2C(=O)c3cccc(F)c3C2=O)c(F)c1
c = Cc1ccoc1C(=O)Nc1cnc(N2C(=O)c3ccccc3C2=O)nc1
d = Cc1ccoc1C(=O)Nc1ccc(N2C(=O)c3cccc(C)c3C2=O)nc1
e = Cc1ccoc1C(=O)Nc1ccc(N2C(=O)c3ccccc3C2=O)cc1F
q: Number of molecules to sort: 5. Sort criterion: EC50, ascending. Please list each label once, in the requested order.
a: e, a, b, d, c

----------
- target-under-test: Metabotropic glutamate receptor 1 (Homo sapiens, UniProt Q13255)
- protocol: Positive allosteric modulation of human mGluR1 by calcium mobilization assay
- Format: functional
- conditions-used: read-out: EC50
quantity: EC50 (nM)

a = Cc1ccoc1C(=O)Nc1ccc(N2C(=O)c3cccc(C)c3C2=O)nc1
b = Cc1ccoc1C(=O)Nc1ccc(N2C(=O)c3cccc(C)c3C2=O)c2ccccc12
q: Which one would you say has the larger EC50 value: a , or b ? Answer with the label corresponding to your selection.
a: a

----------
- target-under-test: Metabotropic glutamate receptor 4 (Homo sapiens, UniProt Q14833)
- Sequence (Q14833 whole entry): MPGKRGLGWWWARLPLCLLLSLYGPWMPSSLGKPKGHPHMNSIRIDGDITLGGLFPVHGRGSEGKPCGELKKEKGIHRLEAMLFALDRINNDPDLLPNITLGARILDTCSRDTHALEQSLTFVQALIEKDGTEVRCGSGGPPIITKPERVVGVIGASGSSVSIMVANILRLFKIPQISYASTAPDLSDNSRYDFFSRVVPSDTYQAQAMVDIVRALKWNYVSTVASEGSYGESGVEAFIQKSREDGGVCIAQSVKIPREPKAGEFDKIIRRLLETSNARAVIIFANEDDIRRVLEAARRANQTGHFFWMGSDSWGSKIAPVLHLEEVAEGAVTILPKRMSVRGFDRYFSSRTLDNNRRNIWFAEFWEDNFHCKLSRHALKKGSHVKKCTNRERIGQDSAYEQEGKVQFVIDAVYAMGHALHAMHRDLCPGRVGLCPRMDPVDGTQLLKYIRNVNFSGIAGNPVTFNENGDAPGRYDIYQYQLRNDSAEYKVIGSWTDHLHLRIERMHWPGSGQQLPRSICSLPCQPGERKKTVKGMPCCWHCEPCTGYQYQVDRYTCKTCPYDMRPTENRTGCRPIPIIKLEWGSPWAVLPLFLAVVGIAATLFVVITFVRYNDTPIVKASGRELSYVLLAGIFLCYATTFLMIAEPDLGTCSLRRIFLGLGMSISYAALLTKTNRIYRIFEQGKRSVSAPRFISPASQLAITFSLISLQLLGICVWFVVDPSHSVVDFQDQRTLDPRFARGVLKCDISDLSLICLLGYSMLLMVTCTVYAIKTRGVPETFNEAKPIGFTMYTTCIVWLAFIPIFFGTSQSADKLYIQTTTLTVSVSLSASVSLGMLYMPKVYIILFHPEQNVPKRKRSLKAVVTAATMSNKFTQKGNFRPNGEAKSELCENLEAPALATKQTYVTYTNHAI
- protocol: Positive allosteric modulation of human mGluR4 by calcium mobilization assay relative to PHCCC
- Format: functional
quantity: %max (%)

// below: answered compounds
| smi | data-value |
| --- | --- |
| Cc1ccoc1C(=O)Nc1ccc(N2C(=O)c3cccc(F)c3C2=O)c(C(F)(F)F)c1 | 80 |
| Cc1ccoc1C(=O)Nc1ccc(N2C(=O)c3cccc(F)c3C2=O)c2ccccc12 | 83 |

a = Cc1ccoc1C(=O)Nc1ccc(N2C(=O)c3cccc(Cl)c3C2=O)c2ccccc12
b = Cc1ccoc1C(=O)Nc1ccc(N2C(=O)c3ccccc3C2=O)c(F)c1
c = Cc1ccoc1C(=O)Nc1cnc(N2C(=O)c3cccc(Cl)c3C2=O)nc1
q: Please list the entries, largest %max first. Please list each label once, in the requested order.
a: a, b, c

----------
- target-under-test: Metabotropic glutamate receptor 1 (Homo sapiens, UniProt Q13255)
- protocol: Positive allosteric modulation of human mGluR1 by calcium mobilization assay
- Assay type: functional
pEC50: −log10 of the molar value.
quantity: pEC50

// below: answered compounds
| smi | target-under-test | quantity | data-value |
| --- | --- | --- | --- |
| COc1cc(NC(=O)c2occc2C)ccc1N1C(=O)c2ccccc2C1=O | Metabotropic glutamate receptor 1 (Homo sapiens, UniProt Q13255) | pEC50 | 7.33 |
| Cc1ccoc1C(=O)Nc1ccc(N2C(=O)c3cccc(F)c3C2=O)c(C(F)(F)F)c1 | Metabotropic glutamate receptor 1 (Homo sapiens, UniProt Q13255) | pEC50 | 6.81 |
| COc1cc(NC(=O)c2occc2C)ccc1N1C(=O)c2cccc(F)c2C1=O | Metabotropic glutamate receptor 1 (Homo sapiens, UniProt Q13255) | pEC50 | 6.84 |
| Cc1ccoc1C(=O)Nc1ccc(N2C(=O)c3cccc(C)c3C2=O)c(C(F)(F)F)c1 | Metabotropic glutamate receptor 1 (Homo sapiens, UniProt Q13255) | pEC50 | 6.27 |
| Cc1ccoc1C(=O)Nc1ccc(N2C(=O)c3cccc(Cl)c3C2=O)nc1 | Metabotropic glutamate receptor 1 (Homo sapiens, UniProt Q13255) | pEC50 | 7.46 |

P = Cc1cc(N2C(=O)c3ccccc3C2=O)ccc1NC(=O)c1occc1C
Q = Cc1ccoc1C(=O)Nc1ccc(N2C(=O)c3ccccc3C2=O)cc1
q: Which one would you say has the larger pEC50 value: P , or Q ? Answer with the label corresponding to your selection.
a: P

1 = Cc1ccoc1C(=O)Nc1ccc(N2C(=O)c3cccc(F)c3C2=O)c2ccccc12
2 = Cc1ccoc1C(=O)Nc1ccc(N2C(=O)c3cccc(F)c3C2=O)cc1
3 = Cc1ccoc1C(=O)Nc1ccc(N2C(=O)c3ccccc3C2=O)nc1
4 = Cc1ccoc1C(=O)Nc1ccc(N2C(=O)c3cccc(Cl)c3C2=O)c(C(F)(F)F)c1
q: Please list the entries, largest pEC50 first. Please list each label once, in the requested order.
a: 1, 2, 4, 3

I = Cc1ccoc1C(=O)Nc1ccc(N2C(=O)c3cccc(C)c3C2=O)c(F)c1
II = COc1cc(NC(=O)c2occc2C)ccc1N1C(=O)c2cccc(C)c2C1=O
q: Which one would you say has the larger pEC50 value: I , or II ? Answer with the label corresponding to your selection.
a: I
(I: 7.58, II: 7.31)

P = Cc1ccoc1C(=O)Nc1ccc(N2C(=O)c3cccc(Cl)c3C2=O)cc1
Q = Cc1ccoc1C(=O)Nc1ccc(N2C(=O)c3ccccc3C2=O)c(C(F)(F)F)c1
R = Cc1cc(NC(=O)c2occc2C)ccc1N1C(=O)c2cccc(Cl)c2C1=O
q: Number of compounds to sort: 3. Sort criterion: pEC50, ascending. Please list each label once, in the requested order.
a: Q, R, P
(Q: 6.91, R: 7.31, P: 7.54)

1 = Cc1cc(NC(=O)c2occc2C)ccc1N1C(=O)c2ccccc2C1=O
2 = Cc1ccoc1C(=O)Nc1ccc(N2C(=O)c3cccc(F)c3C2=O)nc1
q: Which one would you say has the larger pEC50 value: 1 , or 2 ? Answer with the label corresponding to your selection.
a: 1
(1: 7.05, 2: 6.70)

a = Cc1ccoc1C(=O)Nc1cnc(N2C(=O)c3cccc(F)c3C2=O)nc1
b = Cc1ccoc1C(=O)Nc1cnc(N2C(=O)c3cccc(Cl)c3C2=O)nc1
q: Sorting ascending by pEC50, which comes first: a or b ? Answer with the label corresponding to your selection.
a: a

----------
- target-under-test: Metabotropic glutamate receptor 1 (Homo sapiens)
- protocol: Positive allosteric modulation of human mGluR1 by calcium mobilization assay relative to control
- Assay type: functional
- Sequence (Q13255 19-1194 limits assumed): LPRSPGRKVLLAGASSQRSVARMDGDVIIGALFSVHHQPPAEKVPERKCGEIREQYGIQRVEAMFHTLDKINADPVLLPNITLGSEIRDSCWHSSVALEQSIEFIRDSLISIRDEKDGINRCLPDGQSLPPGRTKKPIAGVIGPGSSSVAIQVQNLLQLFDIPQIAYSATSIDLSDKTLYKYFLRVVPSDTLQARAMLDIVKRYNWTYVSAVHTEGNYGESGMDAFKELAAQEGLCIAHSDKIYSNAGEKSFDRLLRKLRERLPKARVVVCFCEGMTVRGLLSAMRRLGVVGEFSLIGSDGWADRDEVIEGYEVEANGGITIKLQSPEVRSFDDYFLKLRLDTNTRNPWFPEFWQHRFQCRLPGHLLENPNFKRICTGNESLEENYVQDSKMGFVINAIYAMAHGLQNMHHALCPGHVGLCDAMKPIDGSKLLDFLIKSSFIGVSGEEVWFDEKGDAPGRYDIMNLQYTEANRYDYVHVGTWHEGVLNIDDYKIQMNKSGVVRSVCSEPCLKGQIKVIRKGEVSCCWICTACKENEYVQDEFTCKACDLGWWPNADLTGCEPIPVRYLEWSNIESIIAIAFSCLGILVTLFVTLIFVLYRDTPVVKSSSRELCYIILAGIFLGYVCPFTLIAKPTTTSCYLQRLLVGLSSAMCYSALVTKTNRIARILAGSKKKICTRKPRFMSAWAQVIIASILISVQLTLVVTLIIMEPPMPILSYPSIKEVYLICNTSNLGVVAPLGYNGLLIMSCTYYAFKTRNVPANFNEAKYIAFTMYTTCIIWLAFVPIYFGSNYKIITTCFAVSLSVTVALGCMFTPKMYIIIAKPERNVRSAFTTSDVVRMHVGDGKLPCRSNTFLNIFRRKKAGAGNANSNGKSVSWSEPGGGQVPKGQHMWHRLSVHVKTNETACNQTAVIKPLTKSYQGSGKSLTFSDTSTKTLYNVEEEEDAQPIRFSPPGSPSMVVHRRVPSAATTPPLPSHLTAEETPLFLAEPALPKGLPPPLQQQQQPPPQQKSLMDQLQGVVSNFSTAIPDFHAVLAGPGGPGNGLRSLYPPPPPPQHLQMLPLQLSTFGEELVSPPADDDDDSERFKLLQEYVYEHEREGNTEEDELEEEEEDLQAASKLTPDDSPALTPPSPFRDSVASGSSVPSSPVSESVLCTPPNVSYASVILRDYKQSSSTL
quantity: %max (%)

| smi | %max (%) |
| --- | --- |
| Cc1ccoc1C(=O)Nc1ccc(N2C(=O)c3cccc(C)c3C2=O)nc1 | 105 |
| Cc1cc(N2C(=O)c3ccccc3C2=O)ccc1NC(=O)c1occc1C | 90 |
| COc1cc(NC(=O)c2occc2C)ccc1N1C(=O)c2cccc(C)c2C1=O | 94 |
| Cc1ccoc1C(=O)Nc1ccc(N2C(=O)c3cccc(F)c3C2=O)c2ccccc12 | 90 |
| Cc1ccoc1C(=O)Nc1ccc(N2C(=O)c3ccccc3C2=O)c(C(F)(F)F)c1 | 108 |
